Assign koff to each entry below.
Biological target: T1, human GFRα3 expressed with a C-terminal myc-myc-hexahistidine tag (human, UniProt O60609 32-374, biotinylated (sites not given) in ELISA format 2 and in the Octet cross-competition; not in SPR)
T1 construct: also called hGFRα3-mmh; hGFRα3-mmH
T1 sequence (O60609 other isoform, or with tags, fused parts or gaps limits assumed): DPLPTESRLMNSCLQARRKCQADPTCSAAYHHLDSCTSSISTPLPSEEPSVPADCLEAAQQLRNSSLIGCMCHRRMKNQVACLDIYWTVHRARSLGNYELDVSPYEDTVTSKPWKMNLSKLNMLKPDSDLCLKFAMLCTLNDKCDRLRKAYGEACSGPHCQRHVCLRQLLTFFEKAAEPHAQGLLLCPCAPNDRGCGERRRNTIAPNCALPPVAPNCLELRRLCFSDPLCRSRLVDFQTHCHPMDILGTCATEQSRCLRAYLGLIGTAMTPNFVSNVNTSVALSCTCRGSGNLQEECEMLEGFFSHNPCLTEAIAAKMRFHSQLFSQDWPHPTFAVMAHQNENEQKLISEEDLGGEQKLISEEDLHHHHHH
Assay: SPR, Ab captured, 25C
Returns: string containing the number followed by the unit.

Exercise: Please give the documented koff of H4H2291S (antibody, human IgG4, V domains shown, human IgG4 Fc (H4H)) VH: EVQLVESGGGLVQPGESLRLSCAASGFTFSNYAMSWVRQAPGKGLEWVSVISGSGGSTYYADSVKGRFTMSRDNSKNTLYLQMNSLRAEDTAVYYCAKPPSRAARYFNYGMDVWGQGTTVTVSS VL: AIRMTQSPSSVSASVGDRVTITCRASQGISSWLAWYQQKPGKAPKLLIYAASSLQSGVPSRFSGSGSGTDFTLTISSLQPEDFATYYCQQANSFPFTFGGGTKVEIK
Key: 0.000164 s⁻¹

Exercise: Please give the documented koff of H4H2236N3 (antibody, human IgG4, V domains shown, human IgG4 Fc (H4H)) VH: EVQLLESGGNLVQPGGSLRLSCAASGFTFSSYAMTWVRQAPGKGLEWVSTISGSGTSTYYADSVKGRFTISRDNSRDTVFLQMNSLRAEDTAVYYCSKPSALRFLHWLAMDVWGQGTLVTVSS VL: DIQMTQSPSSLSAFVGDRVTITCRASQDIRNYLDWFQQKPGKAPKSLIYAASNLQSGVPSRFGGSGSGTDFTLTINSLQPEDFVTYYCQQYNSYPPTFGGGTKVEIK
Key: 0.000233 s⁻¹

Exercise: Please give the documented koff of H4H2294S (antibody, human IgG4, V domains shown, human IgG4 Fc (H4H)) VH: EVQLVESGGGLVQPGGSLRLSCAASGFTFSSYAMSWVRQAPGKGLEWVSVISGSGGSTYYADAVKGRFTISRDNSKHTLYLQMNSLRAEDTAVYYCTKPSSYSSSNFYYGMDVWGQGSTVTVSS VL: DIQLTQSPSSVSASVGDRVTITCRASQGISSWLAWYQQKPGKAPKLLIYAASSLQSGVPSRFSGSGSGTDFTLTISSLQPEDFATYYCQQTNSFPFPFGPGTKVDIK
Key: 7.99e-05 s⁻¹
